Below, each entry is listed alongside its reported DC50.
Test system: TYK2 (Homo sapiens, UniProt P29597)
Sequence (P29597 whole entry): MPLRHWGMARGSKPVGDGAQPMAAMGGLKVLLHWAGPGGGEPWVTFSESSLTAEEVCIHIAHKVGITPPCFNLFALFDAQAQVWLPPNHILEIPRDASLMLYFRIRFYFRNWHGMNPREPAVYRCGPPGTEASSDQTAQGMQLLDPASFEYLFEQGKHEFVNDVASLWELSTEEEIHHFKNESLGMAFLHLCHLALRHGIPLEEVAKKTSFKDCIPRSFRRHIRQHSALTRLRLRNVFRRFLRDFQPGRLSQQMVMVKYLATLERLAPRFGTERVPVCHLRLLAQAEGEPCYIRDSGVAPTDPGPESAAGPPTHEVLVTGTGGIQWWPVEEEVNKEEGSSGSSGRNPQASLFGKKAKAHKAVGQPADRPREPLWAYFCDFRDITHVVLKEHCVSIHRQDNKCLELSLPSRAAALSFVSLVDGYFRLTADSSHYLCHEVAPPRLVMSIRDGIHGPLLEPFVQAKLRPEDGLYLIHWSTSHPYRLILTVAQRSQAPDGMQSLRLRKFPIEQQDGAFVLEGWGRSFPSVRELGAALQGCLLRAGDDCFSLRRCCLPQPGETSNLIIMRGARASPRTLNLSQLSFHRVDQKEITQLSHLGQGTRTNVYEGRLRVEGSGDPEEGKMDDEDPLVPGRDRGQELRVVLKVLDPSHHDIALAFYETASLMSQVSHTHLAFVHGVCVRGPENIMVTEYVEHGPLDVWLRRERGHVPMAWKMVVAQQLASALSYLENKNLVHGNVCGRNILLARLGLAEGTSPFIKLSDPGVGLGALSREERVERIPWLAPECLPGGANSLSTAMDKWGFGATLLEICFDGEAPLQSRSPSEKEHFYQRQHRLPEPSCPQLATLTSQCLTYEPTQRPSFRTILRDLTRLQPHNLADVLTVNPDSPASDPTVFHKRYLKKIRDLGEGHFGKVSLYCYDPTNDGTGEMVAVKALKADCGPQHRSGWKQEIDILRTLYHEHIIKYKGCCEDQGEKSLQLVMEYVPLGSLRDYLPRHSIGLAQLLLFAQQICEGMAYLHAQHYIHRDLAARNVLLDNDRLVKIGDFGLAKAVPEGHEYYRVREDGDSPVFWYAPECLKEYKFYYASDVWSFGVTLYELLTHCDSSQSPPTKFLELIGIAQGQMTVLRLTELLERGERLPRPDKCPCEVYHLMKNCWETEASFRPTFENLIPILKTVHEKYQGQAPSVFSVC
Measurement protocol: TYK2 degradation MSD assay in EBV-B cells
Type: cell-based
Set-up: endogenous in cells; host or cells: EBV-B cells
Condition label: 4 to 24 hours incubation, read-out: TYK2 MSD DC50 rating in EBV-B

Answered cases to consult:
- CNc1cc(-c2cnn(C3CCN(C(=O)NCCCCc4cccc5c4n(C)c(=O)n5C4CCC(=O)NC4=O)CC3)c2)nn2c(C(=O)N[C@@H]3C[C@@H]3F)cnc12 (some centres unmarked) [Example K295]: > 100 nM
- CNc1cc(Nc2cccc(-c3ccc(CN4CCN([C@H]5CC[C@H](c6ccc7c(c6)n(C)c(=O)n7C6CCC(=O)NC6=O)CC5)CC4)cn3)c2OC)nn2c(C(=O)N[C@@H]3C[C@@H]3F)cnc12 (mixture of isomers) [Example K553]: < 1 nM
- CNc1cc(-c2cnn(C3CCN(C(=O)NCCCCCCCCc4cccc5c4n(C)c(=O)n5C4CCC(=O)NC4=O)CC3)c2)nn2c(C(=O)N[C@@H]3C[C@@H]3F)cnc12 (some centres unmarked) [Example K313]: > 100 nM
- CNc1cc(Nc2cccn(-c3ccc(CN4CCN(CC5CCN(c6ccc(-c7ccc8c(c7)n(C)c(=O)n8C7CCC(=O)NC7=O)cc6)CC5)CC4)cn3)c2=O)nn2c(C(=O)N[C@@H]3C[C@@H]3F)cnc12 (some centres unmarked) [Example K514]: > 100 nM

// below: DC50 requested for another compound
Field DC50 (entry CNc1cc(Nc2cccc(-c3ccc(CN4CC5(CCN(c6ccc(C7CCC(=O)NC7=O)cc6)CC5)C4)cn3)c2)nn2c(C(=O)N[C@@H]3C[C@@H]3F)cnc12 (some centres unmarked) [Example K500] ) reads > 100 nM
